assayed_system: KRAS G12D (Homo sapiens, UniProt P01116, G12D)
Construct: host or cells: AsPC-1 human pancreatic cancer cells
Sequence (P01116 1-188 isoform P01116-2 G12D): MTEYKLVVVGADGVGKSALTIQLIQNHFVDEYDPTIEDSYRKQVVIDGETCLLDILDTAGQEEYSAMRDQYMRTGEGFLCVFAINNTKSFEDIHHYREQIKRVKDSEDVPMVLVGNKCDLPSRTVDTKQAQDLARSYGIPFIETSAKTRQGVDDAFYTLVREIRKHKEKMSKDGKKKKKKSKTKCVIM
experiment_notes: Test Example 1-1: KRAS degradation action in AsPC-1, sandwich ELISA
Assay type: cell-based
reported_conditions: AsPC-1 cells, 24 hours treatment, corrected with β-actin, 0% = 10 μM Example No. 7
measurement_kind: DC50 (nM)

compound="Cc1ncsc1-c1ccc([C@H](CO)NC(=O)[C@@H]2C[C@@H](O)CN2C(=O)[C@H](C(C)C)n2cc(-c3ccc(COc4c(-c5c(C)c(F)cc6[nH]ncc56)c(C5CC5)cc5c(N6C[C@@H]7C[C@H]6CN7)nc(OC6CCOCC6)nc45)cc3)nn2)cc1 [Example 8]" assay_result=37
compound="Cc1c(F)cc2[nH]ncc2c1-c1c(C2CC2)cc2c(N3C[C@@H]4C[C@H]3CN4)nc(OC3CCOCC3)nc2c1OCc1ccc(-c2cn([C@H](C(=O)N3C[C@H](O)C[C@H]3C(=O)N[C@@H](CO)c3ccc(-c4ccnn4C)cc3)C(C)C)nn2)cc1 [Example 22]" assay_result=62
compound="Cc1ncsc1-c1ccc([C@H](CO)NC(=O)[C@@H]2C[C@@H](O)CN2C(=O)[C@H](C(C)C)n2cc(-c3ccc(COc4c(-c5cc(O)cc(F)c5C)c(C5CC5)cc5c(N6C[C@@H]7C[C@H]6CN7)nc(OC6CCOCC6)nc45)cc3)nn2)cc1 [Example 15]" assay_result=95
compound="CCc1ccncc1Oc1nc(N2C[C@@H]3C[C@H]2CN3)c2cc(C3CC3)c(-c3c(C)c(F)cc4[nH]ncc34)c(OCc3ccc(-c4cn([C@H](C(=O)N5C[C@H](O)C[C@H]5C(=O)N[C@@H](CO)c5ccc(-c6scnc6C)cc5)C(C)C)nn4)cc3)c2n1 [Example 25]" assay_result=44
compound="Cc1ncsc1-c1ccc([C@H](CF)NC(=O)[C@@H]2C[C@@H](O)CN2C(=O)[C@H](C(C)C)n2cc(-c3ccc(COc4c(-c5c(C)c(F)cc6[nH]ncc56)c(C5CC5)cc5c(N6C[C@@H]7C[C@H]6CN7)nc(OC6CCOCC6)nc45)cc3)nn2)cc1 [Example 17]" assay_result=92
compound="Cc1ncsc1-c1ccc(C2(NC(=O)[C@@H]3C[C@@H](O)CN3C(=O)[C@H](C(C)C)n3cc(-c4ccc(COc5c(-c6c(C)c(F)cc7[nH]ncc67)c(C6CC6)cc6c(N7C[C@@H]8C[C@H]7CN8)nc(OC7CCOCC7)nc56)cc4)nn3)CC2)cc1 [Example 6]" assay_result=103
compound="Cc1ncsc1-c1ccc(C2(NC(=O)[C@@H]3C[C@@H](O)CN3C(=O)[C@@H](NC(=O)c3ccc(COc4c(-c5c(C)c(F)cc6[nH]ncc56)c(C5CC5)cc5c(N6C[C@@H]7C[C@H]6CN7)nc(OC6CCOCC6)nc45)cn3)C(C)C)CC2)cc1 [Example 2]" assay_result=598
compound="Cc1ncsc1-c1ccc([C@H](CO)NC(=O)[C@@H]2C[C@@H](O)CN2C(=O)C(C(C)C)n2cc(-c3ccc(COc4c(-c5c(C)c(F)cc6[nH]ncc56)c(C5CC5)cc5c(N6C[C@@H]7C[C@H]6CN7)nc(OC6CCOCC6)nc45)cc3)cn2)cc1 (single isomer, unassigned) [Example 11]" assay_result=178
